# credit: PubChem BioAssay (NCI)

Recorded TGI by entry
- Tested on: A549 NSCLC
- PROCEDURE_TEXT: NCI tumour cell line growth inhibition, 48 h

COMPOUND | TGI
COC(=O)CCC(NC(=S)N/N=C(\C)c1ccc[nH]1)C(=O)OC (stereo not given) | > 100 µM
O=[N+]([O-])c1ccc(NN=C2CN3CCN(C2)c2ccccc23)c([N+](=O)[O-])c1 | > 100 µM
c1nc(NCCc2cnc[nH]2)c2[nH]cnc2n1 | > 100 µM
N#CC(CCN1CCC(Nc2ccccc2)(c2nnnn2C2CCCCC2)CC1)(c1ccccc1)c1ccccc1 | > 100 µM
COc1ccc2c(c1)[n+](=O)c(C(=O)c1cccs1)c(C(F)(F)F)n2[O-] | > 50 µM
Cc1ccc(S(=O)(=O)N/N=C(\c2nc3ccc(Cl)cc3[nH]c2=O)C(O)c2ccco2)cc1 (stereo not given) | > 100 µM
CCCCNNC(=O)c1ccc(Br)cc1 | > 50 µM
CN1/C(=C/C=C/C=C/C=C2C(=O)c3ccccc3C2=O)C(C)(C)c2ccccc21 | > 100 µM
COc1cc(-c2nc3ccccc3s2)ccc1OCCCCOc1cc2c(cc1OC)C(=O)N1CCC[C@H]1C=N2 | 7.91 µM
COC(=O)c1ccccc1C1CN=NC12Cc1c(ccc3c1CCC3)C2=O (stereo not given) | > 100 µM

----------
- Tested on: SNB-78 CNS
- PROCEDURE_TEXT: NCI tumour cell line growth inhibition, 48 h

COMPOUND | TGI
O=C(NNC(=S)Nc1ccccc1)c1nsc2ccccc12 | > 100 µM
Cc1cc2c(c(C(N)=O)c1C)-c1cccc(F)c1C2=O | > 100 µM
CC(C)N(C(=O)c1cccc(C(=O)N(C(C)C)C(C)C)c1)C(C)C | > 100 µM
ClC(Cl)=C(Cl)C1(Cl)CC1COCc1ccccc1 (centres undefined) | 60.6 µM
CCC[CH2][Sn]([CH2]CCC)([O]C(=O)c1cc(OC)c(OC)cc1OC)[O][Sn]([CH2]CCC)([CH2]CCC)[O]C(=O)c1cc(OC)c(OC)cc1OC | 1.51 µM
C=CCn1c(=S)sc2c(C(=O)OCC)c3c(C)cc(C)cn3c2c1=O | > 100 µM
O=C(/C=C(\O)C(=O)O)/C=C(\O)c1ccccc1 | > 100 µM
NC(CCCC(N)P(=O)(O)O)C(=O)O (centres undefined) | > 100 µM
COc1ccccc1OCC(COC(=O)Nc1ccccc1)OC(=O)Nc1ccccc1 (centres undefined) | > 100 µM

----------
- System: OVCAR-4 ovarian
- PROCEDURE_TEXT: NCI tumour cell line growth inhibition, 48 h; in the data active = GI50 below about 0.43 µM; inactive = the rest
Outcome codes: TRUE for active, FALSE for inactive

COMPOUND_STRUCTURE_STRING | QUALITATIVE_LABEL
COc1ccc2c(c1)[n+](=O)c(C(=O)c1cccs1)c(C(F)(F)F)n2[O-] | FALSE
Cc1ccc(S(=O)(=O)Oc2ccc3c4c(c(=O)oc3c2)CCCCCC4)cc1 | FALSE
CN(C)C(=O)Nc1nc2cc(Cl)c(Cl)cc2[nH]1 | FALSE
COc1ccccc1/C=C1\COc2ccc(-c3ccccc3)cc2C1=O | FALSE
CO/N=C(\COc1ccc2c(=O)c3ccccc3oc2c1)c1ccccc1 | FALSE
COc1ccc2c(c1)nc(NNC(=O)c1cnccn1)c1cccn12 | TRUE
COc1cc(-c2nc3ccccc3s2)ccc1OCCCCOc1cc2c(cc1OC)C(=O)N1CCC[C@H]1C=N2 | FALSE
N#Cc1nc(-c2ccc(F)cc2)oc1S(=O)(=O)N1CCCCC1 | FALSE
C[C@H](c1ccc(Cl)cc1[N+](=O)[O-])N1C(=O)c2cc(I)ccc2N=C(OCCCN2CCN(C)CC2)[C@@H]1c1ccc(Cl)cc1 | FALSE
COC(=O)c1cc(-c2ccccc2)[nH]c1N/N=C/c1c(Cl)cccc1Cl | FALSE
OCCCCC#Cc1ccccc1C#Cc1ccc(O)cc1 | FALSE
C/C(=C\c1ccn(-c2ccccc2N)n1)[C@@H]1C[C@@H]2O[C@]2(C)CCC[C@H](C)[C@H](O)[C@@H](C)C(=O)C(C)(C)[C@@H](O)CC(=O)O1 | TRUE
c1ccc(-c2nn3c(c2-c2ccnc4cc(OCCN5CCOCC5)ccc24)CCC3)nc1 | FALSE
COC(=O)c1c2c(c(C)[n+]([O-])c1C)C(=O)C=C(NCc1ccccc1)C2=O | TRUE
CCC(=O)N1C/C(=C/c2ccc(Cl)cc2)C(=O)/C(=C/c2ccc(Cl)cc2)C1 | FALSE
